procedureDetails: Oral pharmacokinetic interaction study of LUME and 97-78 in rats (LC-ESI-MS/MS, non-compartmental analysis)
Assay type: in vivo, male Sprague–Dawley rats
protocolConditions: male, Sprague-Dawley, rat, plasma, po, 10 mg/kg, LUME 10 mg/kg oral co-administered with 97-78 70 mg/kg oral, rats n = 5, mean ± SD
measuredProperty: Vd/F (L/kg)

CCCCN(CCCC)CC(O)c1cc(Cl)cc2c1-c1ccc(Cl)cc1C2=Cc1ccc(Cl)cc1 (stereo not shown) [LUME] :: 62.7

###

procedureDetails: Oral pharmacokinetic interaction study of LUME and 97-78 in rats (LC-ESI-MS/MS, non-compartmental analysis)
Format: in vivo, male Sprague–Dawley rats
protocolConditions: male, Sprague-Dawley, rat, plasma, po, 10 mg/kg, LUME 10 mg/kg oral co-administered with 97-78 70 mg/kg oral, rats n = 5, mean ± SD
measuredProperty: AUC(0-t) (ng·h/mL)

CCCCN(CCCC)CC(O)c1cc(Cl)cc2c1-c1ccc(Cl)cc1C2=Cc1ccc(Cl)cc1 (stereo not shown) [LUME] :: 10600

###

procedureDetails: Oral pharmacokinetic interaction study of LUME and 97-78 in rats (LC-ESI-MS/MS, non-compartmental analysis)
Format: in vivo, male Sprague–Dawley rats
protocolConditions: male, Sprague-Dawley, rat, plasma, po, 10 mg/kg, LUME 10 mg/kg oral co-administered with 97-78 70 mg/kg oral, rats n = 5, mean ± SD
measuredProperty: half-life (h)

CCCCN(CCCC)CC(O)c1cc(Cl)cc2c1-c1ccc(Cl)cc1C2=Cc1ccc(Cl)cc1 (stereo not shown) :: 47.8

###

procedureDetails: Oral pharmacokinetic interaction study of LUME and 97-78 in rats (LC-ESI-MS/MS, non-compartmental analysis)
Format: in vivo, male Sprague–Dawley rats
protocolConditions: male, Sprague-Dawley, rat, plasma, po, 10 mg/kg, control: LUME 10 mg/kg oral alone, rats n = 5, mean ± SD
Experimental: Study was performed in male Sprague–Dawley rats (n = 5, weight range 200–220 g). The rats were fasted overnight (14–16 hrs) prior to the experiment but given free access to water. […] Plasma data were subjected to non-compartmental pharmacokinetics analysis using WinNonlin (version 5.1, Pharsight Corp, Mountain View, CA, USA). […] Area under the plasma concentration-time curve from time zero to the last quantifiable concentration (AUC0-t) was calculated using linear trapezoidal rule. […]
measuredProperty: AUC(0-inf) (ng·h/mL)

CCCCN(CCCC)CC(O)c1cc(Cl)cc2c1-c1ccc(Cl)cc1C2=Cc1ccc(Cl)cc1 (stereo not shown) [LUME] :: 17400

###

procedureDetails: Oral pharmacokinetic interaction study of LUME and 97-78 in rats (LC-ESI-MS/MS, non-compartmental analysis)
Format: in vivo, male Sprague–Dawley rats
protocolConditions: male, Sprague-Dawley, rat, plasma, po, 10 mg/kg, control: LUME 10 mg/kg oral alone, rats n = 5, mean ± SD
measuredProperty: CL/F (mL/min/kg)

CCCCN(CCCC)CC(O)c1cc(Cl)cc2c1-c1ccc(Cl)cc1C2=Cc1ccc(Cl)cc1 (stereo not shown) :: 9.83

###

procedureDetails: Oral pharmacokinetic interaction study of LUME and 97-78 in rats (LC-ESI-MS/MS, non-compartmental analysis)
Assay type: in vivo, male Sprague–Dawley rats
protocolConditions: male, Sprague-Dawley, rat, plasma, po, 10 mg/kg, control: LUME 10 mg/kg oral alone, rats n = 5, mean ± SD
measuredProperty: Vd/F (L/kg)

CCCCN(CCCC)CC(O)c1cc(Cl)cc2c1-c1ccc(Cl)cc1C2=Cc1ccc(Cl)cc1 (stereo not shown) :: 39.5
